Measured values drawn from patent US5852007A for this set.

target: Recombinant human calpain I (Homo sapiens, UniProt P07384); construct: made in house; experiment: Inhibition of calpain I activity; assay type: biochemical; details: Table III
pIC50: −log10 of the molar value. Square brackets hold non-standard residues; d marks the D form. Peptide text beside a SMILES is read from it. * marks the point of attachment. 2Pal = N[C@@H](Cc1ccccn1)C(=O)O; Bn = c1ccc(C*)cc1; Ms = CS(=O)(=O)*
Assay Readout: pIC50

> print(dat)
                                   compound  observed.result
1  CS(=O)(=O)N[C@H](COCc1ccccc1)C(=O)N[C@@H](Cc1ccccc1)C(O)OCc1ccccc1 (stereo partly shown) [Compound 135]             7.96
2  CCS(=O)(=O)N[C@H](Cc1ccccc1)C(=O)N[C@H](C=O)Cc1ccccc1 [Compound 60]             7.48
3  CS(=O)(=O)N[C@H](COCc1ccccc1)C(=O)N[C@H](C=O)Cc1ccccn1 [Compound 109] (Ms-[dS](Bn)-[2Pal]-aldehyde)             7.40
4  Cc1ccc(S(=O)(=O)N[C@H](COCc2ccccc2)C(=O)N[C@H](C=O)Cc2ccccc2)cc1 [Compound 49]             7.57

====

Target: Recombinant human calpain I (Homo sapiens)
Construct: made in house
Sequence (P07384 1-714): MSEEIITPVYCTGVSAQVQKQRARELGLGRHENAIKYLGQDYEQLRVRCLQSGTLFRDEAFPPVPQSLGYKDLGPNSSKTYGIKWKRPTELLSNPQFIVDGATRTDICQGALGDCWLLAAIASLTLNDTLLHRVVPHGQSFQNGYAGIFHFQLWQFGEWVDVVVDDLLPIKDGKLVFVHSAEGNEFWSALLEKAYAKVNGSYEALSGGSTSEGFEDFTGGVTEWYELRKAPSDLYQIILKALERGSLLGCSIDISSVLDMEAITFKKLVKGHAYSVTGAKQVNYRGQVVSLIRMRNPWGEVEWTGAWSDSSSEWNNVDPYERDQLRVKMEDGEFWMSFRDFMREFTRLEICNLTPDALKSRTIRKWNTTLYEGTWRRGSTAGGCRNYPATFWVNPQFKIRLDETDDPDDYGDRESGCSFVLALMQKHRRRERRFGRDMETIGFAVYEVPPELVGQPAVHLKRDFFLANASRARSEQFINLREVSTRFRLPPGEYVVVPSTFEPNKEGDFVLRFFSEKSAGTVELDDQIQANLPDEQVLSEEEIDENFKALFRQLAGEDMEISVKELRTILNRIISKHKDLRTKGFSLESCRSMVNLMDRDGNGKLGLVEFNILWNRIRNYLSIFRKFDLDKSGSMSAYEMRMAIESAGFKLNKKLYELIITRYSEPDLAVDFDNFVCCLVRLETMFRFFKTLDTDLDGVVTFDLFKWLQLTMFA
Experiment: Inhibition of calpain I activity
Assay type: biochemical
Conditions: Table III; 0.1 uM
Square brackets hold non-standard residues; d marks the D form. Peptide text beside a SMILES is read from it. * marks the point of attachment. 2Pal = N[C@@H](Cc1ccccn1)C(=O)O; d2Thi = N[C@H](Cc1cccs1)C(=O)O; dPhg = N[C@@H](C(=O)O)c1ccccc1; Bn = c1ccc(C*)cc1; Ms = CS(=O)(=O)*
Catalogue of molecules with associated inhibition at 0.1 µM
Assay Readout: inhibition at 0.1 µM (%)

> print(dat)
                                    molecule                         system.under.test  observed.result
 1  CS(=O)(=O)N[C@H](COCc1ccccc1)C(=O)N[C@H](C=[N+]([O-])Cc1ccccc1)Cc1ccccc1 [Compound 117]  Recombinant human calpain I (Homo sapiens)               21
 2  CC(=O)Nc1ccc(S(=O)(=O)N[C@H](COCc2ccccc2)C(=O)N[C@H](C=O)Cc2ccccc2)cc1 [Compound 51]  Recombinant human calpain I (Homo sapiens)               92
 3  CN(Cc1ccccc1)C(=O)CC[C@@H](NS(C)(=O)=O)C(=O)N[C@H](C=O)Cc1ccccc1 [Compound 79]  Recombinant human calpain I (Homo sapiens)               47
 4  O=C[C@H](Cc1ccccc1)NC(=O)[C@@H](Cc1ccccc1)NS(=O)(=O)c1cccc2cccnc12 [Compound 74]  Recombinant human calpain I (Homo sapiens)               83
 5  CS(=O)(=O)N[C@H](COCc1ccccc1)C(=O)N[C@H](C=O)Cc1ccccn1 [Compound 109] (Ms-[dS](Bn)-[2Pal]-aldehyde)  Recombinant human calpain I (Homo sapiens)               59
 6  CS(=O)(=O)N[C@H](Cc1cccs1)C(=O)N[C@H](C=O)Cc1ccccc1 [Compound 100] (Ms-[d2Thi]-Phe-aldehyde)  Recombinant human calpain I (Homo sapiens)               96
 7  CC(C)(C)OC(=O)NCCCC[C@@H](C=O)NC(=O)[C@@H](COCc1ccccc1)NS(C)(=O)=O [Compound 93]  Recombinant human calpain I (Homo sapiens)               95
 8  Cc1ccc(S(=O)(=O)N[C@H](COCc2ccccc2)C(=O)N[C@H](C=O)Cc2ccccc2)cc1 [Compound 49]  Recombinant human calpain I (Homo sapiens)               75
 9  CC(=O)N[C@H](COCc1ccccc1)C(=O)N[C@H](C=O)Cc1ccccc1 [Compound 42]  Recombinant human calpain I (Homo sapiens)               87
10  CS(=O)(=O)N[C@@H](C(=O)N[C@H](C=O)Cc1ccccc1)c1ccccc1 [Compound 76] (Ms-[dPhg]-Phe-aldehyde)  Recombinant human calpain I (Homo sapiens)               88
11  C[N+]([O-])=C[C@H](Cc1ccccc1)NC(=O)[C@@H](COCc1ccccc1)NS(C)(=O)=O [Compound 116]  Recombinant human calpain I (Homo sapiens)                4
12  CCS(=O)(=O)N[C@H](Cc1ccccc1)C(=O)N[C@H](C=O)Cc1ccccc1 [Compound 60]  Recombinant human calpain I (Homo sapiens)               74
13  O=C[C@H](Cc1ccccc1)NC(=O)[C@@H](Cc1c[nH]c2ccccc12)NS(=O)(=O)c1cccs1 [Compound 73]  Recombinant human calpain I (Homo sapiens)               95
14  Cc1ccc(S(=O)(=O)O[C@H]2C[C@H](C(=O)N[C@H](C=O)Cc3ccccc3)N(S(=O)(=O)c3ccccc3)C2)cc1 [Compound 113]  Recombinant human calpain I (Homo sapiens)               11
15  CN([C@H](COCc1ccccc1)C(=O)N[C@H](C=O)Cc1ccccc1)S(C)(=O)=O [Compound 83]  Recombinant human calpain I (Homo sapiens)               37
16  CS(=O)(=O)N[C@H](CSCc1ccccc1)C(=O)N[C@H](C=O)Cc1ccccc1 [Compound 106] (Ms-[dC](Bn)-Phe-aldehyde)  Recombinant human calpain I (Homo sapiens)               95
17  CN(C)S(=O)(=O)N[C@H](COCc1ccccc1)C(=O)N[C@H](C=O)Cc1ccccc1 [Compound 47]  Recombinant human calpain I (Homo sapiens)               91
18  Cn1cnc(S(=O)(=O)N[C@H](COCc2ccccc2)C(=O)N[C@H](C=O)Cc2ccccc2)c1 [Compound 63]  Recombinant human calpain I (Homo sapiens)               41
19  CC(=O)Nc1ccc(S(=O)(=O)N2CCC[C@@H]2C(=O)N[C@H](C=O)Cc2ccccc2)cc1 [Compound 103]  Recombinant human calpain I (Homo sapiens)               37
20  CN(Cc1ccccc1)C(=O)C[C@@H](NS(C)(=O)=O)C(=O)N[C@H](C=O)Cc1ccccc1 [Compound 78]  Recombinant human calpain I (Homo sapiens)               94
21  CCNC(=O)C(=O)[C@H](Cc1ccccc1)NC(=O)[C@@H](COCc1ccccc1)NS(C)(=O)=O [Compound 81]  Recombinant human calpain I (Homo sapiens)               18
22  CS(=O)(=O)N[C@H](COCc1ccccc1)C(=O)N[C@@H](Cc1ccccc1)C(=O)CCc1ccccc1 [Compound 125]  Recombinant human calpain I (Homo sapiens)                0
23  CC(C)C[C@@H](C=O)NC(=O)[C@@H](COCc1ccccc1)NS(C)(=O)=O [Compound 88] (Ms-[dS](Bn)-Leu-aldehyde)  Recombinant human calpain I (Homo sapiens)               40

====

target: cathepsin B (Homo sapiens, UniProt P07858); construct: purchased Calbiochem 219364; assay: Inhibition of cathepsin B; type: biochemical; conditions: Table III; 1 uM; read-out: Cat B % I @ 1 uM
Square brackets hold non-standard residues; d marks the D form. Peptide text beside a SMILES is read from it. * marks the point of attachment. d(hPhe) = N[C@H](CCc1ccccc1)C(=O)O; 2Pal = N[C@@H](Cc1ccccn1)C(=O)O; 2Thi = N[C@@H](Cc1cccs1)C(=O)O; Abu = CC[C@H](N)C(=O)O; Bn = c1ccc(C*)cc1; Ms = CS(=O)(=O)*
Entry flag: yes if inhibition at 1 µM reaches 90%; no if it does not.

> print(dat)
                                    molecule  group.label
 1  O=C[C@H](Cc1ccccc1)NC(=O)[C@@H](COCc1ccccc1)N1C(=O)c2ccccc2C1=O           no
 2  CS(=O)(=O)N[C@H](COCc1ccccc1)C(=O)N[C@@H](Cc1ccccc1)C(O)S(=O)(=O)O (stereo partly drawn)          yes
 3  CS(=O)(=O)N[C@H](COCc1ccccc1)C(=O)N[C@H](C=NO)Cc1ccccc1           no
 4  CS(=O)(=O)N[C@H](COCc1ccccc1)C(=O)N[C@@H](Cc1ccccc1)C(O)CCc1ccccc1 (stereo partly drawn)           no
 5  CC(=O)Nc1ccc(S(=O)(=O)N[C@H](COCc2ccccc2)C(=O)N[C@H](C=O)Cc2ccccc2)cc1          yes
 6  CC(C)C[C@@H](C=O)NC(=O)[C@@H](CC(C)C)NS(C)(=O)=O           no
 7  CC[C@@H](C=O)NC(=O)[C@@H](COCc1ccccc1)NS(C)(=O)=O [Compound 41] (Ms-[dS](Bn)-[Abu]-aldehyde)           no
 8  CS(=O)(=O)N[C@@H](Cc1cccs1)C(=O)N[C@H](C=O)Cc1ccccc1 [Compound 99] (Ms-[2Thi]-Phe-aldehyde)          yes
 9  CS(=O)(=O)N[C@@H](C(=O)N[C@H](C=O)Cc1ccccc1)c1cccs1          yes
10  CC(C)(C)OC(=O)NCCCC[C@@H](C=O)NC(=O)[C@@H](COCc1ccccc1)NS(C)(=O)=O          yes
11  O=C[C@H](Cc1ccccc1)NC(=O)[C@@H](Cc1ccccc1)NS(=O)(=O)c1ccc2ccccc2c1          yes
12  CN1CCN(C)C1[C@H](Cc1ccccc1)NC(=O)[C@@H](COCc1ccccc1)NS(C)(=O)=O          yes
13  CS(=O)(=O)N[C@H](COCc1ccccc1)C(=O)N[C@H](C=[N+]([O-])Cc1ccccc1)Cc1ccccc1          yes
14  CC(C)(C)OC(=O)N[C@H](COCc1ccccc1)C(=O)N[C@H](C=O)Cc1ccccc1           no
15  CS(=O)(=O)N[C@H](COCc1ccccc1)C(=O)N[C@H](C=O)Cc1ccccn1 [Compound 109] (Ms-[dS](Bn)-[2Pal]-aldehyde)           no
16  CS(=O)(=O)N[C@H](CCc1ccccc1)C(=O)N[C@H](C=O)Cc1ccccc1 [Compound 62] (Ms-[d(hPhe)]-Phe-aldehyde)           no
17  CCNC(=O)C(=O)[C@H](Cc1ccccc1)NC(=O)[C@@H](COCc1ccccc1)NS(C)(=O)=O           no
18  C[N+]([O-])=C[C@H](Cc1ccccc1)NC(=O)[C@@H](COCc1ccccc1)NS(C)(=O)=O          yes
